From: PubChem BioAssay (NCATS)

Experimental Details: Drug repurposing screens with cells derived from glioblastoma tumor samples (AID 1345199); also: potency is read from the fitted curve at half-maximal effect; nearly all actives have a fitted effect of over 40% in size
Conditions Used: GBM patient neurospheres viability, ATP luminescence, 48 h; tumour line B
Records with an inconclusive call do not appear. Calls of active or inactive are those of the source. Calls follow the shape of the dose curve; as a rule, active = well fitted inhibition curve with a large enough effect; inconclusive = small, poorly fitted or top-dose-only effect; inactive = flat fitted curve, though single readings scatter.
Quantity Kind: Potency

Please go through the list and note Potency for each compound.
1. Cc1ccc(NC(=O)c2ccc(CN3CCN(C)CC3)cc2)cc1Nc1nccc(-c2cccnc2)n1
2. CCCCN(CCCC)CCC(O)c1cc2c(Cl)cc(Cl)cc2c2cc(C(F)(F)F)ccc12 (centres undefined)

["20 µM (active)", "10 µM (active)"]

Please go through the list and note Potency for each compound.
1. O=C1CCc2ccc(OCCCCN3CCN(c4cccc(Cl)c4Cl)CC3)cc2N1
2. CCCCCCCCOc1ccccc1C(=O)Nc1ccc(C(=O)OCC[N+](C)(CC)CC)cc1

1. 22.4 µM (active)
2. 17.8 µM (active)
